TGT: UniProtKB P17658
Sequence (P17658 whole entry): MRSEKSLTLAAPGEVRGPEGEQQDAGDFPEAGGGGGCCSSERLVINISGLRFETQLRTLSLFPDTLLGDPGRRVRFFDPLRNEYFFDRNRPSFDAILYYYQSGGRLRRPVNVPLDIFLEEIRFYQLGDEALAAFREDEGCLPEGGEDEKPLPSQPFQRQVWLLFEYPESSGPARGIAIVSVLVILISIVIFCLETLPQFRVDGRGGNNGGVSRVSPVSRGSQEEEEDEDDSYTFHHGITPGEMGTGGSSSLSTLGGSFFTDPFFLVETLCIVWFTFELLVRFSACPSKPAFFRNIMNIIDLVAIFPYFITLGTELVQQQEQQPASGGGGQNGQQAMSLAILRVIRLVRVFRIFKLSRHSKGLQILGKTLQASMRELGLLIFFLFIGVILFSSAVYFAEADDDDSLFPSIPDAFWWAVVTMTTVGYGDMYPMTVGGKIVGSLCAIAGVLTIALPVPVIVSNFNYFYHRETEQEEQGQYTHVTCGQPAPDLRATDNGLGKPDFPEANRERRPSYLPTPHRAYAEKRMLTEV
ASSAY OVERVIEW: Inhibition of human Kv1.6 expressed in CHO cells at -80 mV holding potential by whole cell automated patch clamp method
Binary call on IC50 with cut-off 10 µM: strictly below means yes (1), and equality or higher means no (0).

Example cases with answers are listed next.
{"columns": ["MOLECULE SMILES", "CLASS"],
 "data": [
  ["Cc1[nH]c(C(=O)NC/C=C/c2c[nH]c(N)n2)c(Br)c1Br", "no (0)"],
  ["Nc1nc(/C=C/CNC(=O)c2cc3ccccc3[nH]2)c[nH]1", "no (0)"],
  ["Nc1ncc(/C=C/CNC(=O)c2cc(Br)c(Br)[nH]2)[nH]1", "yes (1)"]
]}

*Q* Check if IC50 falls below 10 µM for Nc1nc(/C=C/CNC(=O)c2cc3cc(Cl)ccc3[nH]2)c[nH]1 .
*A* no (0)

*Q* Quick one: Cc1[nH]c(C(=O)NC/C=C/c2c[nH]c(N)n2)cc1Cl
*A* no (0)

*Q* Quick one: O=c1ccc2c(OCCCCOc3ccccc3)c3ccoc3cc2o1
*A* yes (1)

*Q* Quick one: Nc1nc(/C=C/CNC(=O)c2cc3cc(F)ccc3[nH]2)c[nH]1
*A* yes (1)

*Q* Quick one: Cc1[nH]c(C(=O)NC/C=C/c2c[nH]c(N)n2)cc1Br
*A* no (0)

*Q* Quick one: Nc1nc(/C=C/CNC(=O)c2cc(Br)c[nH]2)c[nH]1
*A* yes (1)

*Q* Quick one: Nc1ncc(/C=C/CNC(=O)c2ccc[nH]2)[nH]1
*A* no (0)

*Q* Quick one: Nc1nc(/C=C/CNC(=O)c2cc(Cl)c(Cl)[nH]2)c[nH]1
*A* yes (1)
